Origin of measurements: the supplement of paper PMC10338343

tested on: MILI (PIWIL2) piRISC loaded with L1MC piRNA (26 nt); experiment: pre-steady-state target cleavage rate (min^-1); guide: L1MC piRNA 5'p-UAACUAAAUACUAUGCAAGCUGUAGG; MIWI and MILI are mouse PIWI proteins and EfPiwi is from a freshwater sponge; tags in brackets are library labels; higher = faster piRNA-guided slicing of the target; conditions: auxiliary factor: 500 nM mouse GTSF1;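 note: 1 nM active piRISC with 0.1 nM target library at 33 °C single turnover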
measure: pre-steady-state target cleavage rate
# answer = number (no unit)

Record summary for `UCCUGGAUCAGCUUGCAAAGUAAUUAGUUA` : reported pre-steady-state target cleavage rate = 0.0974

Record summary for `UCCUGCUACACCUUGGAUAGUAUUUAGUUA` : reported pre-steady-state target cleavage rate = 0.122

Record summary for `UCCUCCUACAGCUUCGAUAGUAUUUAGAAA` : reported pre-steady-state target cleavage rate = 0.0982

Record summary for `UCCUCCUACAGCUUGCAUAGUAUGUAGUUA` : reported pre-steady-state target cleavage rate = 0.041

Record summary for `UCCUGGAUGUCCUUGCAUAGUAUUAUGUUA` : reported pre-steady-state target cleavage rate = 0.00972

Record summary for `UCCUGGAACAGCUUGCAAUAGUAUUUAGUUA` : reported pre-steady-state target cleavage rate = 0.0492

Record summary for `UCCUGGAUGUGCUUGCAUACUAUUUAGUAA` : reported pre-steady-state target cleavage rate = 0.00943

Record summary for `UCCUGGAUCAGCUAGCAUAGUAUUUUGUUA` : reported pre-steady-state target cleavage rate = 0.19

Record summary for `UCCUGGAUGUCGAUGCAUUGUAUUUAGUUA` : reported pre-steady-state target cleavage rate = 0.0091
